# system_name: von Hippel-Lindau disease tumor suppressor (Homo sapiens)
# Sequence (P40337 whole entry, the tested form may be a part): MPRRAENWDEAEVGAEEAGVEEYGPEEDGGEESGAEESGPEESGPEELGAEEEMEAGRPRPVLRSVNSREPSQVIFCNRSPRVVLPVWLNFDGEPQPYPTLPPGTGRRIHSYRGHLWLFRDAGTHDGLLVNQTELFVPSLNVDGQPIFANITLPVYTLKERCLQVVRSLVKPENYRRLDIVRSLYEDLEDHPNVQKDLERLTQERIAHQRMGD
# assay_text: Inhibition of NanoLuc-fused VHL (unknown origin) transfected in permeabilized HEK293 cells using NanoGlo substrate incubated for 30 mins by tracer based NanoBRET assay
# Format: cell-based
pIC50: −log10 of the molar value.
parameter_measured: pIC50

- compound_structure: "Cc1cc(-c2scnc2C)ccc1[C@H](C)NC(=O)[C@@H]1C[C@@H](O)CN1C(=O)[C@@H](NC(=O)C1(F)CC1)C(C)(C)C"
  observed_measurement: 6.91

---

# system_name: Hypoxia-inducible factor 1-alpha (Homo sapiens)
# assay_text: Stabilization of hydroxylated HIF-1alpha in HEK293 cells at 50 uM incubated for 2 hrs by Western blot analysis relative to VH298
# Format: cell-based

- compound_structure: "COc1cc(-c2scnc2C)c(F)cc1CNC(=O)[C@@H]1C[C@@H](O)CN1C(=O)[C@@H](NC(=O)C1(F)CC1)C(C)(C)C"
  unit_name: "%"
  Activity: 68
- compound_structure: "COc1cc(-c2scnc2C)c(F)cc1[C@H](C)NC(=O)[C@@H]1C[C@@H](O)CN1C(=O)[C@@H](NC(=O)C1(F)CC1)C(C)(C)C"
  unit_name: "%"
  Activity: 137
- compound_structure: "Cc1ncsc1-c1ccc(CNC(=O)[C@@H]2C[C@@H](O)CN2C(=O)[C@@H](NC(=O)C2(C#N)CC2)C(C)(C)C)cc1F"
  unit_name: "%"
  Activity: 20
- compound_structure: "Cc1ncsc1-c1ccc([C@H](C)NC(=O)[C@@H]2C[C@@H](O)CN2C(=O)[C@@H](NC(=O)C2(C#N)CC2)C(C)(C)C)cc1F"
  unit_name: "%"
  Activity: 52
- compound_structure: "Cc1cc(-c2scnc2C)ccc1[C@H](C)NC(=O)[C@@H]1C[C@@H](O)CN1C(=O)[C@@H](NC(=O)C1(F)CC1)C(C)(C)C"
  unit_name: "%"
  Activity: 208
- compound_structure: "Cc1ncsc1-c1ccc(CNC(=O)[C@@H]2C[C@@H](O)CN2C(=O)[C@@H](NC(=O)C2(F)CC2)C(C)(C)C)cc1F"
  unit_name: "%"
  Activity: 75
- compound_structure: "Cc1cc(-c2scnc2C)ccc1[C@H](C)NC(=O)[C@@H]1C[C@@H](O)CN1C(=O)[C@@H](NC(=O)C1(C#N)CC1)C(C)(C)C"
  unit_name: "%"
  Activity: 110
- compound_structure: "Cc1cc(-c2scnc2C)c(F)cc1[C@H](C)NC(=O)[C@@H]1C[C@@H](O)CN1C(=O)[C@@H](NC(=O)C1(F)CC1)C(C)(C)C"
  unit_name: "%"
  Activity: 137
- compound_structure: "Cc1cc(-c2scnc2C)ccc1CNC(=O)[C@@H]1C[C@@H](O)CN1C(=O)[C@@H](NC(=O)C1(C#N)CC1)C(C)(C)C"
  unit_name: "%"
  Activity: 66
- compound_structure: "Cc1cc(-c2scnc2C)c(F)cc1CNC(=O)[C@@H]1C[C@@H](O)CN1C(=O)[C@@H](NC(=O)C1(F)CC1)C(C)(C)C"
  unit_name: "%"
  Activity: 76
- compound_structure: "Cc1cc(-c2scnc2C)ccc1CNC(=O)[C@@H]1C[C@@H](O)CN1C(=O)[C@@H](NC(=O)C1(F)CC1)C(C)(C)C"
  unit_name: "%"
  Activity: 69
- compound_structure: "Cc1ncsc1-c1ccc([C@H](C)NC(=O)[C@@H]2C[C@@H](O)CN2C(=O)[C@@H](NC(=O)C2(F)CC2)C(C)(C)C)cc1F"
  unit_name: "%"
  Activity: 102
